Assay: Pharmacokinetic evaluation in CD-1 mice (IV and PO)
Type: in vivo
Settings: male, mouse, plasma, PO, 30 mg/kg
Measurement label: Cmax (nM)
Answers are plain numbers, in nM.

Request: If you can, please state the reported Cmax value of C[C@H]1CN(c2cc(S(=O)(=O)NC3(C)CC3)cc3c2n2nc(C(F)(F)F)nc2n3-c2nnc(C(F)F)s2)C[C@H](C)N1 [Compound 065W] .
Result: 1980

Below: the item to evaluate.
Request: # query: Cmax of entry CCc1nc2n(-c3nnc(C(F)F)s3)c3cc(S(=O)(=O)NC4(C)CC4)cc(N4C[C@H](C)N[C@@H](C)C4)c3n2n1 [Compound 065R]
Result: 1610

###

Assay: Pharmacokinetic evaluation in BALB/c nude mice (PO)
Assay type: in vivo
Conditions: mouse, in vivo, 30 mg/kg
Measurement label: Cmax (nM)
One number for each entry, in nM.

Request: Suppose we examine the compound `C[C@H]1CN(c2cc(S(=O)(=O)NC3(C)CC3)cn3c(-c4nnc(C(F)F)s4)c([C@@H]4CCCO4)nc23)C[C@H](C)N1` ; what Cmax value has been reported?
Result: 1870

###

Please provide measured pIC50 for the entries that follow.
Biological target: PARG (Homo sapiens, UniProt Q86W56)
Construct: made in house
Sequence (Q86W56 whole entry): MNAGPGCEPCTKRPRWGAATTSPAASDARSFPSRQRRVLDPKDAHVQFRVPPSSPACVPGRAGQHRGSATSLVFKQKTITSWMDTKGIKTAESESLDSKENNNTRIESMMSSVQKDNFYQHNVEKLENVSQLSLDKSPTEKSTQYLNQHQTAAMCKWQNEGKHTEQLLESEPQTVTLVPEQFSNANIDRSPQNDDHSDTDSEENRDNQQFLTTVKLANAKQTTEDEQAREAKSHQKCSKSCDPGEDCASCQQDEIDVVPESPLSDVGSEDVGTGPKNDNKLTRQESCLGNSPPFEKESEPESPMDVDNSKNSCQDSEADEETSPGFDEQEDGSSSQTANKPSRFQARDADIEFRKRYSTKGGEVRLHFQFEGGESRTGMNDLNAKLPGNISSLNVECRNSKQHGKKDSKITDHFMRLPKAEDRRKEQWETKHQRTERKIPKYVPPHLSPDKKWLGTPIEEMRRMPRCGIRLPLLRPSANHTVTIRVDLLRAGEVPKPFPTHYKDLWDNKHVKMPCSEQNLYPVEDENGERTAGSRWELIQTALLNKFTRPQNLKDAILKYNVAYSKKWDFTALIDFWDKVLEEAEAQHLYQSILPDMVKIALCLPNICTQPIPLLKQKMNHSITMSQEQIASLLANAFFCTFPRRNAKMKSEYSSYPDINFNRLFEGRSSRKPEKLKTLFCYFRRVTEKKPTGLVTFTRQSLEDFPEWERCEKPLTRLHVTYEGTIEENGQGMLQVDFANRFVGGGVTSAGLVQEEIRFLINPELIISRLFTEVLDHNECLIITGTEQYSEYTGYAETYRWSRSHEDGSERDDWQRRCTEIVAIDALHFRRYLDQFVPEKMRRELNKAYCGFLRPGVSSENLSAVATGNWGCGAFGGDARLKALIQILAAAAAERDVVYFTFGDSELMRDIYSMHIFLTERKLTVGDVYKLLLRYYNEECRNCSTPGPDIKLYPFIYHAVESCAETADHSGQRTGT
Assay: Enzymatic inhibitory activity against PARG, HTRF assay
Assay type: biochemical
Details: HTRF; PARylated PARP1 protein as substrate; 60 minutes at room temperature; read-out: IC50 against PARG enzyme
Give bare numbers, as −log10 of the molar value.

Some solved cases for reference:
Request: Name the reported pIC50 value associated with the compound `C[C@H]1CN(c2cc(S(=O)(=O)NC3(C#N)CC3)cc3c2ncn3-c2nnc(C(F)F)s2)C[C@H](C)N1C(=O)N(C)C`
Result: 7.50

Request: Requested read-out: pIC50. Entry: C=CCn1c(=O)n(-c2nnc(C(F)F)s2)c2cc(S(=O)(=O)NC3(C#N)CC3)cc(N3CCN(S(=N)(=O)C(C)C)CC3)c21 (stereo not drawn) [Compound 074G]
Result: 8.48

Now take the following compound into account.
Request: Any idea what its pIC50 is? The compound is C#CCn1c(=O)n(-c2nnc(C(F)F)s2)c2cc(S(=O)(=O)NC3(C#N)CC3)cc(N3CCN(C(=O)C(C)C)CC3)c21 [Compound 074K]
Result: 8.72

###

Experiment: Pharmacokinetic evaluation in BALB/c nude mice (PO)
Format: in vivo
Conditions: mouse, in vivo, 30 mg/kg
Measurement label: MRT inf

Request: Value lookup for MRT inf; key = C[C@H]1CN(c2cc(S(=O)(=O)NC3(C)CC3)cn3c(-c4nnc(C(F)F)s4)c([C@@H]4CCCO4)nc23)C[C@H](C)N1 [Compound 080B2]
Result: 3.27 h

###

Target: PARG (Homo sapiens, UniProt Q86W56)
Construct: made in house
Test: Enzymatic inhibitory activity against PARG, HTRF assay
Assay type: biochemical
Measurement label: pIC50
Answers are plain numbers, as −log10 of the molar value.

Request: For CC(C)n1c(=O)n(-c2nnc(C(F)F)s2)c2cc(S(=O)(=O)NC3(C#N)CC3)cc(N3CCN(C(=O)N4CCCC4)CC3)c21 [Compound A047] , what is its reported pIC50?
Result: 7.82

###

Assay: Pharmacokinetic evaluation in CD-1 mice (IV and PO)
Type: in vivo
Conditions: male, mouse, plasma, IV, 1 mg/kg, read-out: Vss
Kindly state Vd for each of the entries shown.
One number for each entry, in L/kg.

Request: Any idea what its Vd is? The molecule is C[C@H]1CN(c2cc(S(=O)(=O)NC3(C)CC3)cc3c2n2nc(C(F)(F)F)nc2n3-c2nnc(C(F)F)s2)C[C@H](C)N1 [Compound 065W]
Result: 7.2

As a next step, examine the molecule that follows.
Request: Quick check: Vd of CCc1nc2n(-c3nnc(C(F)F)s3)c3cc(S(=O)(=O)NC4(C)CC4)cc(N4C[C@H](C)N[C@@H](C)C4)c3n2n1 [Compound 065R] ?
Result: 6.8
